Molecular target: LPA1 (Homo sapiens, UniProt Q92633)
Construct: ProLink (PK) beta-galactosidase enzyme-fragment tag
Sequence (Q92633 whole entry, the tested form may be a part): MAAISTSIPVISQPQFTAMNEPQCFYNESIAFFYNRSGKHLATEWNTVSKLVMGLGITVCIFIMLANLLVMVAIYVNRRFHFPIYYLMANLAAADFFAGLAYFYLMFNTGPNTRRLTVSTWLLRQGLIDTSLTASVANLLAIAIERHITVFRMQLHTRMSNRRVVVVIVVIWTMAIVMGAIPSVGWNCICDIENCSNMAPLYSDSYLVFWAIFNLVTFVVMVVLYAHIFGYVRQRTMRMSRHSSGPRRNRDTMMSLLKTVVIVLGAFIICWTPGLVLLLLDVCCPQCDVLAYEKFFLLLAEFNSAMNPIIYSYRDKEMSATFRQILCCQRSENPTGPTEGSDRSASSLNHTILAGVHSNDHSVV
Test: LPA1 calcium flux assay (LPA1 functional antagonist assay)
Conditions: PathHunter CHO-K1 EDG2 β-Arrestin cell line; calcium indicator dye; stimulated with EC80 concentration of LPA; FLIPR Tetra
pIC50: −log10 of the molar value.
outcome-measure: pIC50

INSERT INTO measurements (compound, result_value) VALUES
  ('CCc1nc(-c2nnn(C)c2Cn2cc(CC(C)C)n(C)c2=O)ccc1N1C[C@H](CC(=O)O)CC(F)(F)C1 (stereo in doubt)', '> 7.00'),
  ('CCCc1cn(Cc2c(-c3ccc(N4C[C@@H](CC(=O)O)CC(F)(F)C4)c(C)n3)nnn2C)ccc1=O (stereo in doubt)', '< 5.30'),
  ('CCc1nc(-c2nnn(C)c2Cn2cc(CC3CC3)nn2)ccc1N1C[C@@H](CC(=O)O)CC(F)(F)C1', '6.30 to 7.00');

QUERY: Need pIC50, item "CCCN(C)C(=O)OCc1c(-c2ccc(N3C[C@@H](CC(=O)O)CC(F)(F)C3)c(CC)n2)nnn1C"
RESULT: < 5.30

QUERY: Need pIC50, item "CCc1nc(-c2nnn(C)c2Cn2ncc(CC3CC3)n2)ccc1N1C[C@@H](CC(=O)O)CC(F)(F)C1"
RESULT: > 7.00

QUERY: Need pIC50, item CCCc1ccc(=O)n(Cc2c(-c3ncc(CN4CC(C(=O)O)CC(F)(F)C4)c(CC)n3)cnn2C)c1 (single isomer, unassigned) [Example 161]
RESULT: 5.30 to 6.30
